Tested on: TNF-α
Assay: TNF-α inhibitory activity
Type: cell-based
pIC50: −log10 of the molar value.
ASSAY_READOUT: pIC50

a. COc1ccc(C(CC(N)=O)N2C(=O)c3ccccc3C2=O)cc1OC (stereo not drawn)
b. Nc1cccc2c1CN(C1CCC(=O)NC1=O)C2=O (stereo not drawn)
c. O=C1CCC(N2C(=O)c3ccccc3C2=O)C(=O)N1 (stereo not drawn) [Thalidomide]
*Q* Sort the entries above numerically by pIC50, high end first. Give the labels in the order specified.
*A* b, a, c
(b: 7.00, a: 4.90, c: 3.72)

---

Recorded measurements of IC50, one per entry
Tested on: PDE type 4 purified from U937 cells
Experiment: Phosphodiesterase (PDE) type 4 assay
Format: biochemical
Conditions: PDE type 4 from U937 cells; three independent experiments; read-out: PDE4 activity IC50

Illustrative cases are given below, each with its answer.
COMPOUND	ASSAY_READOUT	RESULT
O=C1CCC(N2C(=O)c3ccccc3C2=O)C(=O)N1 (stereo not drawn) [Thalidomide]	IC50	> 100 µM
COc1ccc(C(CC(N)=O)N2C(=O)c3ccccc3C2=O)cc1OC (stereo not drawn)	IC50	9.42 µM

Please examine the following record next.
*Q* Identify the reported IC50 for the following entry. Nc1cccc2c1CN(C1CCC(=O)NC1=O)C2=O (stereo not drawn)
*A* > 100 µM
